- Target under test: T1, Peptide 3 (Pore Forming 2) [biot]-[C6spacer]-DGPANYNVDLPFMYS (human)
- T1 construct: Synthetic biotinylated peptide immobilized at 10 µg/mL on streptavidin plates; also called P3
- T1 peptide: {Biotin-C6spacer}-DGPANYNVDLPFMYS
- Experimental protocol: dose-response ELISA, biotinylated peptide on streptavidin plate, IgG 0.00282 to 500 nM, anti-Fab-HRP
No end group written: not given here. *: point of attachment. Biotin = O=C1N[C@H]2[C@H](CS[C@H]2CCCCC(=O)*)N1; C6spacer = C6 spacer
What pEC50 was measured for each of the following?
// pEC50: -log10(molar conc.)

[ask] Returns the measured pEC50 for the input binder. Input: Monoclonal antibody P3-R5-E06 (antibody, human IgG1, kappa, V domains shown, scFv from phage display subcloned into Human IgG1 format, expressed in HEK293T; also called P3-R5-E6) VH: EVQLVESGGSLVKPGGSLRLSCAASGFTFSNAYMNWVRQAPGKGLEWISSISGSSSYIGYADFVKGRFTISRDNAKNSLYLQMNSLRAEDTAVYYCVRSSYYNYDYGDAMDVWGRGTLVTVSS VL: QSVLTQPASVSGSPGQSITISCAGTSSDVGGNYYVSWYQQHPGKAPKLMIYQDSNRPSGVSNRFSGSKSGNTASLTISGLQAEDEADYYCSSYTGYSTRVFGGGTKLEIKR
[reply] 9.01

[ask] I am curious: what pEC50 value has been reported for Monoclonal antibody P3-R4-F03 (antibody, human IgG1, kappa, V domains shown, scFv from phage display subcloned into Human IgG1 format, expressed in HEK293T; also called P3-R4-F3) VH: EVQLVESGGSLVKPGGSLRLSCAASGFTFSNNYMNWVRQAPGKGLEWISSIGGSSRDIYYADFVKGRFTISRDNAKNSLYLQMNSLRAEDTAVYYCVRSNSGMDVWGRGTLVTVSS VL: QSVLTQPASVSGSPGQSITISCAGTSSDVGGSYSVSWYQQHPGKAPKLMIYYDSYRPSGVSNRFSGSKSGNTASLTISGLQAEDEADYYCSSNTQSSTRVFGGGTKLEIKR ?
[reply] 9.07

[ask] GET /values?readout=pEC50&item= Monoclonal antibody P3-R4-E11 (antibody, human IgG1, kappa, V domains shown, scFv from phage display subcloned into Human IgG1 format, expressed in HEK293T) VH: EVQLVESGGSLVKPGGSLRLSCAASGFTFSNSGMNWVRQAPGKGLEWISGISGSSRYIGYADFVKGRFTISRDNAKNSLYLQMNSLRAEDTAVYYCVRSNYGGMDVWGRGTLVTVSS VL: QSVLTQPASVSGSPGQSITISCAGTSSDVGGYGYVSWYQQHPGKAPKLMIYYDSYRPSGVSNRFSGSKSGNTASLTISGLQAEDEADYYCSSYTSQSTRVFGGGTKLEIKR
[reply] 9.05
